Sourced from patent US6548042B2

Listed next: entries and their corresponding Uptake in femur.
test: Biodistribution of i.v. administered radioiodinated compounds in balb/c mice; details: 24 h postinjection, i.v.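 Further: healthy mice given radioiodinated bisphosphonic acids, with randomly chosen groups of three animals per time point.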

O=P(O)(O)C(NCCc1cccc([131I])c1)P(=O)(O)O [67a]; 1.39±0.43 % ID/g
O=P(O)(O)C(Cc1cccc([125I])c1)P(=O)(O)O [34a]; 15.25±4.89 % ID/g
O=P(O)(O)C(CCc1cccc([131I])c1)P(=O)(O)O [72a]; 8.84±0.97 % ID/g
O=P(O)(O)C(Cc1ccccc1)P(=O)(O)O; 15±5 % ID/g

Moving on to the next compound.
For record O=P(O)(O)C(O)(Cc1cccc([131I])c1)P(=O)(O)O [46a] the listed Uptake in femur is 37.79±11.78 % ID/g
